biological target: stromelysin catalytic domain (SCD) (Homo sapiens, UniProt P08254)
measurementKind: pIC50
// pIC50 here means minus log10 of the molar concentration (mol/L)

Req: Fill in the recorded pIC50 for this molecule, with stromelysin catalytic domain (SCD) (Homo sapiens, UniProt P08254) as test system: CC(C)[C@H](NS(=O)(=O)c1ccc2oc3ccccc3c2c1)C(=O)O
Resp: 5.05

###

target: MMP02 (GCD, recombinant gelatinase A catalytic domain) (Homo sapiens, UniProt P08253); experiment: Thiopeptolide assay, gelatinase A catalytic domain (GCD); assay type: biochemical; details: thiopeptolide substrate; catalytic domain; read-out: (GCD) MMP02 IC50
Sequence (P08253 110-221 limits assumed): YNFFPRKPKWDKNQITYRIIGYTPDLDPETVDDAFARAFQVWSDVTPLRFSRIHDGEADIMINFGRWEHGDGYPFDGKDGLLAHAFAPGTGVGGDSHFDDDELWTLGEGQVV
Sequence (P08253 397-465 limits assumed): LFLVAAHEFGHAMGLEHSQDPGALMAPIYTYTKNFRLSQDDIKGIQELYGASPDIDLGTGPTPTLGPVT
measurementKind: IC50 (nM)
Give the quantity in nM, number only.

// below: answered compounds
mol | systemTested | measurementKind | uom | numericValue
O=C(O)[C@H](Cc1ccccc1)NS(=O)(=O)c1ccc2oc3ccccc3c2c1 | MMP02 (GCD, recombinant gelatinase A catalytic domain) (Homo sapiens, UniProt P08253) | IC50 | nM | 900
CC(C)[C@H](NS(=O)(=O)c1ccc2sc3ccccc3c2c1)C(=O)O | MMP02 (GCD, recombinant gelatinase A catalytic domain) (Homo sapiens, UniProt P08253) | IC50 | nM | 610
O=C(O)CNS(=O)(=O)c1ccc2oc3ccccc3c2c1 | MMP02 (GCD, recombinant gelatinase A catalytic domain) (Homo sapiens, UniProt P08253) | IC50 | nM | 730
CC(C)[C@H](NS(=O)(=O)c1ccc2oc3ccccc3c2c1)C(=O)O | MMP02 (GCD, recombinant gelatinase A catalytic domain) (Homo sapiens, UniProt P08253) | IC50 | nM | 84

Req: Can you look up the measured IC50 of CC(C)[C@H](NS(=O)(=O)c1ccc2oc3cc(Br)ccc3c2c1)C(=O)O for me?
Resp: 470

Req: Can you look up the measured IC50 of CC(C)[C@H](NS(=O)(=O)c1ccc2oc3cc(-c4ccccc4)ccc3c2c1)C(=O)O for me?
Resp: 360

Req: Can you look up the measured IC50 of O=C(O)[C@H](CSC(c1ccccc1)(c1ccccc1)c1ccccc1)NS(=O)(=O)c1ccc2oc3ccccc3c2c1 for me?
Resp: 9400

Req: Can you look up the measured IC50 of CC(C)C[C@H](NS(=O)(=O)c1ccc2oc3ccccc3c2c1)C(=O)O for me?
Resp: 320

###

target: gelatinase A (Homo sapiens, UniProt P08253)
measurementKind: pIC50
// pIC50 here means minus log10 of the molar concentration (mol/L)

Req: Fill in the recorded pIC50 for this compound, with gelatinase A (Homo sapiens, UniProt P08253) as test system: CC(C)[C@H](NS(=O)(=O)c1ccc2oc3ccccc3c2c1)C(=O)O
Resp: 6.24

###

# log10 of IC50 per entry
target: MMP02 (GCD, recombinant gelatinase A catalytic domain) (Homo sapiens); assay: Thiopeptolide assay, gelatinase A catalytic domain (GCD); format: biochemical; conditions: thiopeptolide substrate; catalytic domain; read-out: (GCD) MMP02 IC50
Scale: decimal log of IC50, IC50 in nM.

// below: answered compounds
compound | log10 of IC50
CC(C)[C@H](NS(=O)(=O)c1ccc2c(c1)oc1ccccc12)C(=O)O | 0.65
CC(C)[C@H](NS(=O)(=O)c1ccc2c(c1)Cc1ccccc1-2)C(=O)O | 1.69
O=C(O)C[C@H](NS(=O)(=O)c1ccc2oc3ccccc3c2c1)C(=O)O | 3.08
C[C@H](NS(=O)(=O)c1ccc2oc3ccccc3c2c1)C(=O)O | 3.23
CCC(C)[C@H](NS(=O)(=O)c1ccc2oc3ccccc3c2c1)C(=O)O (stereo partly shown) | 3.36

Req: Can you look up the measured log10 of IC50 of CCC(C)[C@H](NS(=O)(=O)c1ccc2oc3ccccc3c2c1)C(=O)NO (stereo partly shown) for me?
Resp: 4.54

Req: Can you look up the measured log10 of IC50 of O=C(O)[C@H](CS)NS(=O)(=O)c1ccc2oc3ccccc3c2c1 for me?
Resp: 3.65

###

molecular target: MMP03 (SCD, stromelysin-1 catalytic domain) (Homo sapiens); construct: SCD (stromelysin-1 catalytic domain); made in house; host or cells: Escherichia coli; assay: Thiopeptolide assay, stromelysin-1 catalytic domain (SCD); type: biochemical; details: thiopeptolide substrate; catalytic domain; read-out: (SCD) MMP03 IC50
Sequence (P08254 100-272 limits assumed): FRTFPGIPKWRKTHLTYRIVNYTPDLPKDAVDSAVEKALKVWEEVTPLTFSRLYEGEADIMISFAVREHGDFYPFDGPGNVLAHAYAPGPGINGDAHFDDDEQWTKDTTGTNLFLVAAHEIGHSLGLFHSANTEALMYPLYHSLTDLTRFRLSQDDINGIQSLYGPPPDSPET
pIC50: −log10 of the molar value.
Assign a class from recorded pIC50; defined classes: lower segment = under 6, middle segment = from 6 up to 7, upper segment = 7 and over

Worked set:
mol | assignedLabel
CC(C)[C@H](NS(=O)(=O)c1ccc2c(c1)oc1ccccc12)C(=O)O | upper segment
C[C@H](NS(=O)(=O)c1ccc2oc3ccccc3c2c1)C(=O)O | lower segment
O=C(O)CNS(=O)(=O)c1ccc2oc3ccccc3c2c1 | lower segment

Now for a further compound.
Req: Hi, small favor: classify CC(C)[C@H](NS(=O)(=O)c1ccc2c(c1)Cc1ccccc1-2)C(=O)O by its pIC50 when you get a moment.
Resp: middle segment

###

These compounds were tested on UniProt P45452; pIC50 is the recorded read-out.
// pIC50 here means minus log10 of the molar concentration (mol/L)

mol | systemTested | pIC50
CC(C)[C@H](NS(=O)(=O)c1ccc2c(c1)Cc1ccccc1-2)C(=O)O | UniProt P45452 | 6.47

Req: Fill in the recorded pIC50 for this compound, with UniProt P45452 as test system: CC(C)[C@H](NS(=O)(=O)c1ccc2c(c1)oc1ccccc12)C(=O)O
Resp: 7.33

###

# melting point per entry

// below: answered compounds
compound | measurementKind | result
O=C(O)[C@H](Cc1ccccc1)NS(=O)(=O)c1ccc2oc3ccccc3c2c1 [Example 3] | melting point | 196 to 198 °C
CC(C)[C@H](NS(=O)(=O)c1ccc2oc3ccccc3c2c1)C(=O)O [Example 5] | melting point | 163 to 165 °C
O=C(O)C[C@H](NS(=O)(=O)c1ccc2oc3ccccc3c2c1)C(=O)O [Example 7] | melting point | 165 to 168 °C

Turning to the following compound.
Req: Can you look up the measured melting point of O=C(O)CNS(=O)(=O)c1ccc2oc3ccccc3c2c1 [Example 6] for me?
Resp: 208 to 210 °C

###

target: MMP02 (GCD, recombinant gelatinase A catalytic domain) (Homo sapiens, UniProt P08253); assay: Thiopeptolide assay, gelatinase A catalytic domain (GCD); format: biochemical; settings: thiopeptolide substrate; Table 2; read-out: GCD (IC50)
measurementKind: pIC50
// pIC50 here means minus log10 of the molar concentration (mol/L)

Req: Can you look up the measured pIC50 of CC(C)[C@H](NS(=O)(=O)c1ccc2oc3ccccc3c2c1)C(=O)O [Example 5] for me?
Resp: 7.08

###

# IC50 per entry
molecular target: MMP03 (SCD, stromelysin-1 catalytic domain) (Homo sapiens); construct: SCD (stromelysin-1 catalytic domain); made in house; host or cells: Escherichia coli; experiment: Thiopeptolide assay, stromelysin-1 catalytic domain (SCD); format: biochemical; settings: thiopeptolide substrate; catalytic domain; read-out: (SCD) MMP03 IC50
Give the quantity in µM, number only.

molecule | IC50 / µM
O=C(O)C[C@H](NS(=O)(=O)c1ccc2oc3ccccc3c2c1)C(=O)O [Example 7] | 1
CC(C)[C@H](NS(=O)(=O)c1ccc2oc3cc(Br)ccc3c2c1)C(=O)O [Example 16] | 0.75
CCC(C)[C@H](NS(=O)(=O)c1ccc2oc3ccccc3c2c1)C(=O)O (some centres unmarked) [Example 2] | 1.5
CC(C)[C@H](NS(=O)(=O)c1ccc2sc3ccccc3c2c1)C(=O)O [Example 14] | 0.69

Req: Fill in the recorded IC50 for this molecule, with MMP03 (SCD, stromelysin-1 catalytic domain) (Homo sapiens) as test system: CC(C)[C@H](NS(=O)(=O)c1ccc2oc3cc(-c4ccccc4)ccc3c2c1)C(=O)O [Example 17]
Resp: 0.062
